Can you tell me pIC50 for the items I'm about to list?
system: 786-O; assay: OncoPanel cytotoxicity assay; assay type: cell-based; conditions: Homo sapiens, 786-0, 72 hour incubation
Keep in mind that pIC50 stands for -log10 of concentration in molar terms.

# pIC50 of CC[C@@H]1CNC2(CC2)CN1C(=O)[C@@H]1C[C@@H](F)CN1C(=O)C1=C(C(C)C)N2C(=N[C@@](C)(c3ccc(Cl)nc3)[C@H]2c2ccc(Cl)c(F)c2)S1 = 4.43

# pIC50 of CC1(C)CCC2(CC1)N[C@@H](C(=O)N[C@@H]1CC[C@@H](C(N)=O)OC1)[C@H](c1ccnc(Cl)c1F)[C@]21C(=O)Nc2cc(Cl)ccc21 = 6.47
